biological target: T1, CD16A V158 (human, UniProt P08637 17-208, limits assumed); assay: SPR (BIAcore), koff compared with wild-type Fc
T1 construct: construct not described
T1 sequence (P08637 17-208 F176V limits assumed): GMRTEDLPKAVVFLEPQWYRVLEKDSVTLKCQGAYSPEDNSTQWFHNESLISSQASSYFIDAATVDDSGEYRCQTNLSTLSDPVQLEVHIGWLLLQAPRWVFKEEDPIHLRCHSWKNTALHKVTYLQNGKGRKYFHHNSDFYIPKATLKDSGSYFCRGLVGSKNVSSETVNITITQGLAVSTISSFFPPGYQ
WT koff/mutant koff by entry:

[
  {
    "Binder": "Fc mutant 14: F243L R292P P396L (other, UniProt P01857-1 104-330, looked up, domain: Fc) DKTHTCPPCPAPELLGGPSVFLLPPKPKDTLMISRTPEVTCVVVDVSHEDPEVKFNWYVDGVEVHNAKTKPPEEQYNSTYRVVSVLTVLHQDWLNGKEYKCKVSNKALPAPIEKTISKAKGQPREPQVYTLPPSRDELTKNQVSLTCLVKGFYPSDIAVEWESNGQPENNYKTTPLVLDSDGSFFLYSKLTVDKSRWQQGNVFSCSVMHEALHNHYTQKSLSLSPGK",
    "WT koff/mutant koff, ratio": 6.3
  },
  {
    "Binder": "Fc mutant 16: F243L R292P Y300L P396L (other, UniProt P01857-1 104-330, looked up, domain: Fc) DKTHTCPPCPAPELLGGPSVFLLPPKPKDTLMISRTPEVTCVVVDVSHEDPEVKFNWYVDGVEVHNAKTKPPEEQYNSTLRVVSVLTVLHQDWLNGKEYKCKVSNKALPAPIEKTISKAKGQPREPQVYTLPPSRDELTKNQVSLTCLVKGFYPSDIAVEWESNGQPENNYKTTPLVLDSDGSFFLYSKLTVDKSRWQQGNVFSCSVMHEALHNHYTQKSLSLSPGK",
    "WT koff/mutant koff, ratio": 10.1
  },
  {
    "Binder": "Fc mutant 12: F243L R292P Y300L (other, UniProt P01857-1 104-330, looked up, domain: Fc) DKTHTCPPCPAPELLGGPSVFLLPPKPKDTLMISRTPEVTCVVVDVSHEDPEVKFNWYVDGVEVHNAKTKPPEEQYNSTLRVVSVLTVLHQDWLNGKEYKCKVSNKALPAPIEKTISKAKGQPREPQVYTLPPSRDELTKNQVSLTCLVKGFYPSDIAVEWESNGQPENNYKTTPPVLDSDGSFFLYSKLTVDKSRWQQGNVFSCSVMHEALHNHYTQKSLSLSPGK",
    "WT koff/mutant koff, ratio": 7.4
  },
  {
    "Binder": "Fc mutant 13: F243L R292P V305I (other, UniProt P01857-1 104-330, looked up, domain: Fc) DKTHTCPPCPAPELLGGPSVFLLPPKPKDTLMISRTPEVTCVVVDVSHEDPEVKFNWYVDGVEVHNAKTKPPEEQYNSTYRVVSILTVLHQDWLNGKEYKCKVSNKALPAPIEKTISKAKGQPREPQVYTLPPSRDELTKNQVSLTCLVKGFYPSDIAVEWESNGQPENNYKTTPPVLDSDGSFFLYSKLTVDKSRWQQGNVFSCSVMHEALHNHYTQKSLSLSPGK",
    "WT koff/mutant koff, ratio": 2.6
  },
  {
    "Binder": "Fc mutant 15: R292P V305I P396L (other, UniProt P01857-1 104-330, looked up, domain: Fc) DKTHTCPPCPAPELLGGPSVFLFPPKPKDTLMISRTPEVTCVVVDVSHEDPEVKFNWYVDGVEVHNAKTKPPEEQYNSTYRVVSILTVLHQDWLNGKEYKCKVSNKALPAPIEKTISKAKGQPREPQVYTLPPSRDELTKNQVSLTCLVKGFYPSDIAVEWESNGQPENNYKTTPLVLDSDGSFFLYSKLTVDKSRWQQGNVFSCSVMHEALHNHYTQKSLSLSPGK",
    "WT koff/mutant koff, ratio": 1.9
  },
  {
    "Binder": "Fc mutant 17: F243L R292P V305I P396L (other, UniProt P01857-1 104-330, looked up, domain: Fc) DKTHTCPPCPAPELLGGPSVFLLPPKPKDTLMISRTPEVTCVVVDVSHEDPEVKFNWYVDGVEVHNAKTKPPEEQYNSTYRVVSILTVLHQDWLNGKEYKCKVSNKALPAPIEKTISKAKGQPREPQVYTLPPSRDELTKNQVSLTCLVKGFYPSDIAVEWESNGQPENNYKTTPLVLDSDGSFFLYSKLTVDKSRWQQGNVFSCSVMHEALHNHYTQKSLSLSPGK",
    "WT koff/mutant koff, ratio": 4
  },
  {
    "Binder": "Fc mutant 18: F243L R292P Y300L V305I P396L (other, UniProt P01857-1 104-330, looked up, domain: Fc; Same substitutions as the Fc of ch4D5-FcMT1) DKTHTCPPCPAPELLGGPSVFLLPPKPKDTLMISRTPEVTCVVVDVSHEDPEVKFNWYVDGVEVHNAKTKPPEEQYNSTLRVVSILTVLHQDWLNGKEYKCKVSNKALPAPIEKTISKAKGQPREPQVYTLPPSRDELTKNQVSLTCLVKGFYPSDIAVEWESNGQPENNYKTTPLVLDSDGSFFLYSKLTVDKSRWQQGNVFSCSVMHEALHNHYTQKSLSLSPGK",
    "WT koff/mutant koff, ratio": 10.1
  }
]

Cited source: patent US20240131162A1
